Assay info: Volume of distribution at steady state in Wistar rat at 0.3 mg/kg, iv measured up to 24 hrs by LC-MS analysis
Assay type: ADME, organism-based
Reported conditions: in vivo, read-out: Vdss
Measure name: Vd (L/kg)
Value expressed in L/kg; do not type the unit.

Given item C[C@H]([C@H](C(=O)Nc1cc([C@@H](CC(=O)O)C2CC2)ccc1Cl)c1ccc(Cl)cc1)C(F)(F)F , the value recorded as its Vd is 1.4

====

Assay info: Half life in Wistar rat at 0.3 mg/kg, iv measured up to 24 hrs by LC-MS analysis
Type: ADME, organism-based
Reported conditions: in vivo
Measure name: half-life

Given item C[C@H]([C@H](C(=O)Nc1cc([C@@H](CC(=O)O)C2CC2)ccc1Cl)c1ccc(Cl)cc1)C(F)(F)F , the value recorded as its half-life is 7.5 h

====

Assay info: Induction of CYP3A4 in human hepatocytes using phenacetin as substrate incubated for 60 mins by LC-MS/MS analysis
Reported conditions: 1 h
Catalogue of log10 of Activity values
Lab note - Activity converted to log10 from values in nM.

[
  {
    "Compound": "C[C@H]([C@H](C(=O)Nc1cc(C[C@H](C)C(=O)O)ccc1Cl)c1ccc(Cl)cc1)C(F)(F)F",
    "log10 of Activity": 2.42
  },
  {
    "Compound": "CCc1ccc([C@@H](C(=O)Nc2cc(C3(CC(=O)O)CC3)ccc2F)[C@@H](C)C(F)(F)F)cc1",
    "log10 of Activity": 1.49
  }
]

Given item C[C@H]([C@H](C(=O)Nc1cc(C2(CC(=O)O)COC2)ccc1Cl)c1ccc(Cl)cc1)C(F)(F)F , the value recorded as its log10 of Activity is 3.35

Given item C[C@H]([C@H](C(=O)Nc1cc([C@@H](CC(=O)O)C2CC2)ccc1Cl)c1ccc(Cl)cc1)C(F)(F)F , the value recorded as its log10 of Activity is 2.41

Given item C[C@H]([C@H](C(=O)Nc1cc(C2(CC(=O)O)CCC2)ccc1Cl)c1ccc(Cl)cc1)C(F)(F)F , the value recorded as its log10 of Activity is 2.41

Given item CC(C)C(CC(=O)O)c1ccc(Cl)c(NC(=O)[C@H](c2ccc(Cl)cc2)[C@@H](C)C(F)(F)F)c1 (stereo in doubt; 44a) , the value recorded as its log10 of Activity is 1.00

====

Assay info: Blood clerance in cynomolgus monkey at 0.1 mg/kg, iv measured up to 24 hrs by LC-MS analysis
Format: ADME, organism-based, Macaca fascicularis
Reported conditions: whole blood
Measure name: clearance (L/h/kg)
Value expressed in L/h/kg; do not type the unit.

Given item C[C@H]([C@H](C(=O)Nc1cc([C@@H](CC(=O)O)C2CC2)ccc1Cl)c1ccc(Cl)cc1)C(F)(F)F [RUNCACIGUAT] , the value recorded as its clearance is 0.16

====

Catalogue of Efficacy values
Tested on: Guanylate cyclase soluble subunit alpha-1 (Rattus norvegicus) (UniProt P19686)
Sequence (P19686 whole entry): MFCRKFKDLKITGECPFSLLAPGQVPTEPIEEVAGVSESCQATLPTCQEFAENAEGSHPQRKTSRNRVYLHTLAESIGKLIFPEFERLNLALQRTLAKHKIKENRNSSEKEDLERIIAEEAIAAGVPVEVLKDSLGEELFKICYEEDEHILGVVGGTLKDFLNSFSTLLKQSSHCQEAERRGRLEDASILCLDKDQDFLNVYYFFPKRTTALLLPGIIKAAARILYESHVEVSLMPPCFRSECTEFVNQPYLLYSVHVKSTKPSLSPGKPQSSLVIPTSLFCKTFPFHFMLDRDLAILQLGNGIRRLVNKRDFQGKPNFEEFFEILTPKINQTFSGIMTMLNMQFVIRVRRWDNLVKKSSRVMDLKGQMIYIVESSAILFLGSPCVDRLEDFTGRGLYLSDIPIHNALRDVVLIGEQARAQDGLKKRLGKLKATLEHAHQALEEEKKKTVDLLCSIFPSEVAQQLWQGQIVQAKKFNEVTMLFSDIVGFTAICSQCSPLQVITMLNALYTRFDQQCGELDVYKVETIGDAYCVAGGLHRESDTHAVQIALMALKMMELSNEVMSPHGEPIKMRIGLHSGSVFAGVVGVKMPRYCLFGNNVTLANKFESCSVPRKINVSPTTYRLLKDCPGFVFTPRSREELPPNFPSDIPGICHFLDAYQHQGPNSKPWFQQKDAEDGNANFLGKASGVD
Assay info: Activation of recombinant rat sGC alpha1 subunit expressed in CHO cells assessed as induction of [32P-cGMP] formation by measuring efficacy using alpha-[32P-GTP] as substrate measured after 6 mins by luminescence assay relative to control
Type: cell-based
Reported conditions: filed as activator
Value expressed in %; do not type the unit.

Past entries and their recorded results:
[
  {
    "Compound": "Cc1ccc(CC2(C(=O)O)CC2)cc1NC(=O)[C@H](c1ccc(Cl)cc1)[C@@H](C)C(F)(F)F",
    "Measure name": "Efficacy",
    "Unit symbol": "%",
    "Measurement": 44
  },
  {
    "Compound": "CC(C)C(CC(=O)O)c1ccc(Cl)c(NC(=O)[C@H](c2ccc(Cl)cc2)[C@@H](C)C(F)(F)F)c1 (stereo in doubt; 44b)",
    "Measure name": "Efficacy",
    "Unit symbol": "%",
    "Measurement": 47
  },
  {
    "Compound": "C[C@H]([C@H](C(=O)Nc1cc(C2(CC(=O)O)COC2)ccc1Cl)c1ccc(Cl)cc1)C(F)(F)F",
    "Measure name": "Efficacy",
    "Unit symbol": "%",
    "Measurement": 52
  },
  {
    "Compound": "CC(C)C(CC(=O)O)c1ccc(Cl)c(NC(=O)[C@H](c2ccc(Cl)cc2)[C@@H](C)C(F)(F)F)c1 (stereo in doubt; 44a)",
    "Measure name": "Efficacy",
    "Unit symbol": "%",
    "Measurement": 58
  },
  {
    "Compound": "Cc1c(CCC(=O)O)cccc1NC(=O)[C@H](c1ccc(CN2N=C(c3ccccc3)OCC2=O)cc1)C1CCCC1",
    "Measure name": "Efficacy",
    "Unit symbol": "%",
    "Measurement": 110
  }
]

Continue with the next compound.
Given item C[C@H]([C@H](C(=O)Nc1cc(CC2(C(=O)O)CC2)ccc1Cl)c1ccc(Cl)cc1)C(F)(F)F , the value recorded as its Efficacy is 63
